The reported measurements were obtained from the supplement of paper PMC6755084.

Give measured fraction ligated for each item. Keep answers brief.
B1: F1*; the commonest letter at each place (parent)
chain: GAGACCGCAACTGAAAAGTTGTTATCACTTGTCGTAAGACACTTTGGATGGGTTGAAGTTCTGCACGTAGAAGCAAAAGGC

Variants of: B1
Experiment: fraction ligated after 30 min (ligated reads / total reads); higher = more ligase activity
Settings: with F1*sub RNA substrate (template-directed ligation), 42 °C
One number for each entry.

// below: answered variants
[
  {
    "mutationSpec": "G31A A39C",
    "parameter": "fraction ligated",
    "quantitativeResult": 0.78
  },
  {
    "mutationSpec": "T30A A39C",
    "parameter": "fraction ligated",
    "quantitativeResult": 0.777
  },
  {
    "mutationSpec": "T45G A56T",
    "parameter": "fraction ligated",
    "quantitativeResult": 0.79
  }
]

Take each entry in turn and give its fraction ligated.
1. C28T T32A
2. C28A A57T
3. T32A T44A
4. C26T C33A
5. T23A A39C
6. T43G G47A

1. 0.822
2. 0.789
3. 0.819
4. 0.798
5. 0.789
6. 0.802

For the variant C33A A48C , give its reported fraction ligated.
0.784
